In this section we review reported protein stability index values for a set of sequences.
# PROTOCOL DETAILS: protein stability index of a GFP-peptide fusion (GPS, HEK-293T) (PSI 1-6); higher = more stable;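 also: 24-mer peptide tiles fused after GFP, lentivirally expressed, FACS-sorted into six equal bins by GFP/DsRed ratio, decoded by Illumina sequencing, PSI is the read-weighted mean bin number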
# CONDITION PARAMETERS: treatment: MLN4924 1 uM, 8 h; c terminus: a fixed tail appended
OBSERVABLE: protein stability index

# SEQ, OBSERVABLE, RESULT
measured = [
    ("RGTYEQDGRFEKRQGNPSWKKQQK [ZNF396]", "protein stability index", 4.72),
    ("TPSNFQHIGHVGWDPNTGFDLNNL [WASL]", "protein stability index", 3.47),
    ("EDEEEEEGGEGEKEGEGEVGGEAV [TRIM55]", "protein stability index", 5.7),
    ("TIGNLVPQKTYSVKVLAFTSIGDG [PTPRD]", "protein stability index", 2),
    ("SSCYPLIPSTPEEVSADDETPNPP [MAGEA10]", "protein stability index", 5.44),
    ("EIPWTSLTRKGLVRVVFFPLFSNW [PHTF1]", "protein stability index", 2.84),
    ("METQAEQQELETLPTTKMAQTNPT [CRYBA1]", "protein stability index", 5.3),
]
